Listing of IC50 toward Type-2 angiotensin II receptor (Homo sapiens, UniProt P50052), each taken from a published source.
Number in nM, nothing else.

>>> observed_value("COCCO[C@@H](C(=O)N1Cc2ccc(OC)c(OCc3ccccc3)c2C[C@H]1C(=O)O)c1ccccc1")
836
>>> observed_value("COc1ccc2c(c1OCc1ccccc1)C[C@@H](C(=O)O)N(C(=O)[C@@H](OC1CC3CC3C1)c1ccccc1)C2 (stereo partly shown)")
4.4
>>> observed_value("CC#CCN(C)[C@H]1CCN(C(=O)C(c2ccccc2)c2ccccc2)[C@H](C(=O)O)C1")
2050
>>> observed_value("CCCCO[C@H](C(=O)N1Cc2ccc(OC)c(OCc3ccccc3)c2C[C@H]1C(=O)O)c1ccccc1")
17.7
>>> observed_value("CN(CCCc1ccc(F)cc1)[C@H]1C[C@@H](C(N)=O)N(C(=O)C(c2ccccc2)c2ccccc2)C1")
89
>>> observed_value("O=C(O)[C@H]1Cc2c(ccc(Cl)c2OCc2ccccc2)CN1C(=O)[C@@H](OC1CCCC1)c1ccccc1")
234

Qu. Report IC50 on Type-2 angiotensin II receptor (Homo sapiens, UniProt P50052) for this entry: `O=C(O)[C@@H]1C[C@H](CS(=O)(=O)c2ccccc2)CN1C(=O)C(c1ccccc1)c1ccccc1`
Ans. 2650
